- Test system: Plasmodium berghei
- ASSAY PROTOCOL: Luciferase/luciferin-expressing antifolate-resistant parasites were used to infect a culture of HepG2 cells that were pre-incubated with compounds. Infected hepatocytes emit light due to the luciferase reaction. Assay results are presented as the percent inhibition of light emission compared to control. […]
- Format: functional
- CONDITIONS USED: sporozoite, FFLUC_HILL_SLOPE 3.16, FFLUC_R_SQUARED 0.345, read-out: LUCIFERASE INFECTION ASSAY - IC50
RECORDED METRIC: IC50

Record request: IC50 value, item CC(NC(=O)c1cc(C2CC2)nn1-c1ccccc1)c1ccc(F)cc1F (stereo unspecified) > 10 µM
